target: NK1 receptor (Homo sapiens)
Sequence (P25103 whole entry, species assumed): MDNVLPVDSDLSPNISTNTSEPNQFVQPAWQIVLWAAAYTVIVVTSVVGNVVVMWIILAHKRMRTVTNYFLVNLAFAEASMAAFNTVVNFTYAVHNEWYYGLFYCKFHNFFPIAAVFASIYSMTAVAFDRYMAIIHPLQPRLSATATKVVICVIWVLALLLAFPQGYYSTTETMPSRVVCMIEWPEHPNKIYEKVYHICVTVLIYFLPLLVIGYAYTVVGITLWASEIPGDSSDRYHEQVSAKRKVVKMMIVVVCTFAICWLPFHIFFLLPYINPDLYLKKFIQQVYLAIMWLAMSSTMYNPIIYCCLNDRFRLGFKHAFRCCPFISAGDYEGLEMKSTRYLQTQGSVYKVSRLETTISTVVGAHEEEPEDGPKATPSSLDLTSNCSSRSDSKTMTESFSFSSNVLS
Decide using Ki alone. Strictly below 400 pM: 1. Equal to or above 400 pM: 0.

>  <Molecule>
C[C@@H](OC[C@@]1(c2ccccc2)CC[C@H](n2cn[nH]c2=O)CN1)c1cc(C(F)(F)F)cc(C(F)(F)F)c1

>  <Experimental System>
NK1 receptor (Homo sapiens)

>  <Label>
1

$$$$
>  <Molecule>
C[C@@H](OC[C@@]1(c2ccccc2)CC[C@]2(CN1)NC(=O)NC2=O)c1cc(C(F)(F)F)cc(C(F)(F)F)c1 [Example 43b]

>  <Experimental System>
NK1 receptor (Homo sapiens)

>  <Label>
0

$$$$
>  <Molecule>
C[C@@H](OC[C@@]1(c2ccccc2)CC[C@@]2(CN1)COC(=O)N2)c1cc(C(F)(F)F)cc(C(F)(F)F)c1 [Example 73b]

>  <Experimental System>
NK1 receptor (Homo sapiens)

>  <Label>
1

$$$$
>  <Molecule>
C[C@@H](OC[C@@]1(c2ccccc2)CC[C@]2(CCOC(=O)N2)CN1)c1cc(C(F)(F)F)cc(C(F)(F)F)c1 [Example 111a]

>  <Experimental System>
NK1 receptor (Homo sapiens)

>  <Label>
1

$$$$

Consider the record given below.
Task: Please determine if C[C@@H](OC[C@@]1(c2ccccc2)CC[C@]2(CCC(=O)N2)CN1)c1cc(C(F)(F)F)cc(C(F)(F)F)c1 [Example 72a] is below 400 pM in terms of Ki.
Result: 0
